Assay: Toxicokinetics of LUM001 free form, 13-week oral capsule toxicity study in dogs
Format: in vivo, Beagle dogs
Settings: male, Beagle, dog, plasma, oral, 20 mg/kg, Day 91; 20 mg/kg; M
Metric Name: Tmax (h)

CCCCC1(CCCC)CS(=O)(=O)c2ccc(N(C)C)cc2[C@@H](c2ccc(OCc3ccc(C[N+]45CCN(CC4)CC5)cc3)cc2)[C@H]1O : 1.75

---

Experiment: Toxicokinetics of LUM001 free form, 13-week oral gavage toxicity study in rats
Assay type: in vivo
Details: female, CD IGS, rat, plasma, oral; Day 1; 500 mg/kg; F
Metric Name: Tmax (h)

CCCCC1(CCCC)CS(=O)(=O)c2ccc(N(C)C)cc2[C@@H](c2ccc(OCc3ccc(C[N+]45CCN(CC4)CC5)cc3)cc2)[C@H]1O : 3

---

Test: Toxicokinetics of LUM001 free form, 13-week oral gavage toxicity study in rats
Type: in vivo
Conditions: female, CD IGS, rat, plasma, oral; Day 1; 150 mg/kg; F
Metric Name: Cmax

CCCCC1(CCCC)CS(=O)(=O)c2ccc(N(C)C)cc2[C@@H](c2ccc(OCc3ccc(C[N+]45CCN(CC4)CC5)cc3)cc2)[C@H]1O [LUM001] : 42.4 ng/mL

---

Assay: Toxicokinetics of LUM001 free form, 13-week oral capsule toxicity study in dogs
Assay type: in vivo, Beagle dogs
Settings: both sexes, Beagle, dog, plasma, oral, 5 mg/kg, Day 91; 5 mg/kg; Comb; read-out: AUC(0-24 h), mean
Metric Name: AUC(0-t) (ng·h/mL)

CCCCC1(CCCC)CS(=O)(=O)c2ccc(N(C)C)cc2[C@@H](c2ccc(OCc3ccc(C[N+]45CCN(CC4)CC5)cc3)cc2)[C@H]1O : 1.75

---

Test: Toxicokinetics of LUM001 free form, 13-week oral gavage toxicity study in rats
Format: in vivo
Conditions: female, Charles River CD IGS, rat, plasma, oral; Day 78; 150 mg/kg; F
Metric Name: Tmax (h)

CCCCC1(CCCC)CS(=O)(=O)c2ccc(N(C)C)cc2[C@@H](c2ccc(OCc3ccc(C[N+]45CCN(CC4)CC5)cc3)cc2)[C@H]1O [LUM001] : 2

---

Experiment: Toxicokinetics of LUM001 free form, 13-week oral capsule toxicity study in dogs
Format: in vivo, Beagle dogs
Conditions: both sexes, Beagle, dog, plasma, oral, 20 mg/kg, Day 1; 20 mg/kg; Comb
Metric Name: Cmax (ng/mL)

CCCCC1(CCCC)CS(=O)(=O)c2ccc(N(C)C)cc2[C@@H](c2ccc(OCc3ccc(C[N+]45CCN(CC4)CC5)cc3)cc2)[C@H]1O [LUM001] : 25.1

---

Test: Pharmacokinetics of LUM001 after oral gavage in rats
Format: in vivo
Settings: both sexes, Sprague Dawley, rat, plasma, 30 mg/kg, single oral gavage 30 mg/kg free form, fasted, read-out: BA (bioavailability)
Metric Name: bioavailability

CCCCC1(CCCC)CS(=O)(=O)c2ccc(N(C)C)cc2[C@@H](c2ccc(OCc3ccc(C[N+]45CCN(CC4)CC5)cc3)cc2)[C@H]1O [LUM001] : < 0.1%

---

Test: Toxicokinetics of LUM001 free form, 13-week oral capsule toxicity study in dogs
Type: in vivo, Beagle dogs
Conditions: male, Beagle, dog, plasma, oral, 100 mg/kg, Day 1; 100 mg/kg; M
Protocol: Six- to seven-month old Beagle dogs of body weights of 4.9-9.5 kg (4/sex/group) orally via capsules at 0, 5, 20 or 100 mg/kg for 13 consecutive weeks. Plasma levels of LUM001 (free form) were evaluated on Days 1 and 91. […] Plasma samples were stored at approximately −70° C. or lower until analyzed. The concentration of LUM001 free form in plasma were determined using an LCMSMS method. […]
Metric Name: Tmax (h)

CCCCC1(CCCC)CS(=O)(=O)c2ccc(N(C)C)cc2[C@@H](c2ccc(OCc3ccc(C[N+]45CCN(CC4)CC5)cc3)cc2)[C@H]1O : 1.25

---

Assay: Toxicokinetics of LUM001 free form, 13-week oral gavage toxicity study in rats
Format: in vivo
Conditions: female, Charles River CD IGS, rat, plasma, oral, 500 mg/kg, Day 78; 500 mg/kg; F; read-out: AUC(0-24 h)
Metric Name: AUC(0-t) (ng·h/mL)

CCCCC1(CCCC)CS(=O)(=O)c2ccc(N(C)C)cc2[C@@H](c2ccc(OCc3ccc(C[N+]45CCN(CC4)CC5)cc3)cc2)[C@H]1O [LUM001] : 470

---

Experiment: Toxicokinetics of LUM001 free form, 13-week oral gavage toxicity study in rats
Format: in vivo
Conditions: male, Charles River CD IGS, rat, plasma, oral; Day 78; 5.0 mg/kg; M
Protocol: Charles River CD IGS rats were assigned to treatment groups (9sex/toxicokinetic group) and were administered daily doses of 0, 5, 30, 75, and 150 mg/kg (males) or 0, 5, 30, 150, and 500 mg/kg (females). […] All animals were dosed with 10 mL/kg/day based on the most recently determined body weights. […] Plasma samples were stored at approximately −20° C. or lower until analyzed. The concentration of LUM001 free form in plasma were determined using an LCMSMS method. […]
Metric Name: Tmax (h)

CCCCC1(CCCC)CS(=O)(=O)c2ccc(N(C)C)cc2[C@@H](c2ccc(OCc3ccc(C[N+]45CCN(CC4)CC5)cc3)cc2)[C@H]1O [LUM001] : 2

---

Assay: Toxicokinetics of LUM001 free form, 13-week oral capsule toxicity study in dogs
Type: in vivo, Beagle dogs
Details: female, Beagle, dog, plasma, oral, 20 mg/kg, Day 91; 20 mg/kg; F
Metric Name: Tmax (h)

CCCCC1(CCCC)CS(=O)(=O)c2ccc(N(C)C)cc2[C@@H](c2ccc(OCc3ccc(C[N+]45CCN(CC4)CC5)cc3)cc2)[C@H]1O [LUM001] : 2

---

Test: Toxicokinetics of LUM001 free form, 13-week oral gavage toxicity study in rats
Type: in vivo
Conditions: male, Charles River CD IGS, rat, plasma, oral; Day 78; 150 mg/kg; M
Metric Name: Cmax (ng/mL)

CCCCC1(CCCC)CS(=O)(=O)c2ccc(N(C)C)cc2[C@@H](c2ccc(OCc3ccc(C[N+]45CCN(CC4)CC5)cc3)cc2)[C@H]1O : 28.3

---

Assay: Toxicokinetics of LUM001 free form, 13-week oral capsule toxicity study in dogs
Type: in vivo, Beagle dogs
Conditions: both sexes, Beagle, dog, plasma, oral, 20 mg/kg, Day 1; 20 mg/kg; Comb; read-out: AUC(0-24 h), mean
Experimental: Six- to seven-month old Beagle dogs of body weights of 4.9-9.5 kg (4/sex/group) orally via capsules at 0, 5, 20 or 100 mg/kg for 13 consecutive weeks. Plasma levels of LUM001 (free form) were evaluated on Days 1 and 91. […] Plasma samples were stored at approximately −70° C. or lower until analyzed. The concentration of LUM001 free form in plasma were determined using an LCMSMS method. […]
Metric Name: AUC(0-t) (ng·h/mL)

CCCCC1(CCCC)CS(=O)(=O)c2ccc(N(C)C)cc2[C@@H](c2ccc(OCc3ccc(C[N+]45CCN(CC4)CC5)cc3)cc2)[C@H]1O : 72.6

---

Assay: Toxicokinetics of LUM001 free form, 13-week oral capsule toxicity study in dogs
Assay type: in vivo, Beagle dogs
Details: female, Beagle, dog, plasma, oral, 5 mg/kg, Day 1; 5 mg/kg; F
Metric Name: Tmax

CCCCC1(CCCC)CS(=O)(=O)c2ccc(N(C)C)cc2[C@@H](c2ccc(OCc3ccc(C[N+]45CCN(CC4)CC5)cc3)cc2)[C@H]1O : 1.25 h

---

Assay: Toxicokinetics of LUM001 free form, 13-week oral capsule toxicity study in dogs
Type: in vivo, Beagle dogs
Settings: female, Beagle, dog, plasma, oral, 100 mg/kg, Day 1; 100 mg/kg; F
Metric Name: Cmax (ng/mL)

CCCCC1(CCCC)CS(=O)(=O)c2ccc(N(C)C)cc2[C@@H](c2ccc(OCc3ccc(C[N+]45CCN(CC4)CC5)cc3)cc2)[C@H]1O : 117

---

Experiment: Toxicokinetics of LUM001 free form, 13-week oral capsule toxicity study in dogs
Type: in vivo, Beagle dogs
Details: male, Beagle, dog, plasma, oral, 5 mg/kg, Day 1; 5 mg/kg; M
Metric Name: Cmax (ng/mL)

CCCCC1(CCCC)CS(=O)(=O)c2ccc(N(C)C)cc2[C@@H](c2ccc(OCc3ccc(C[N+]45CCN(CC4)CC5)cc3)cc2)[C@H]1O [LUM001] : 8.79

---

Test: Toxicokinetics of LUM001 free form, 13-week oral capsule toxicity study in dogs
Type: in vivo, Beagle dogs
Conditions: both sexes, Beagle, dog, plasma, oral, 20 mg/kg, Day 91; 20 mg/kg; Comb; read-out: AUC(0-24 h), mean
Metric Name: AUC(0-t) (ng·h/mL)

CCCCC1(CCCC)CS(=O)(=O)c2ccc(N(C)C)cc2[C@@H](c2ccc(OCc3ccc(C[N+]45CCN(CC4)CC5)cc3)cc2)[C@H]1O : 50.8

These measurements were taken from patent US20140271734A1.
